# STUDY TARGET: T1, Canine IL-31RA ECD-10His (canine)
# T1 construct: made in HEK-293 or CHO cells and coated on the ELISA plates; also called canine IL-31 receptor alpha extracellular domain HIS-tagged protein; cIL-31RA
# T1 chain: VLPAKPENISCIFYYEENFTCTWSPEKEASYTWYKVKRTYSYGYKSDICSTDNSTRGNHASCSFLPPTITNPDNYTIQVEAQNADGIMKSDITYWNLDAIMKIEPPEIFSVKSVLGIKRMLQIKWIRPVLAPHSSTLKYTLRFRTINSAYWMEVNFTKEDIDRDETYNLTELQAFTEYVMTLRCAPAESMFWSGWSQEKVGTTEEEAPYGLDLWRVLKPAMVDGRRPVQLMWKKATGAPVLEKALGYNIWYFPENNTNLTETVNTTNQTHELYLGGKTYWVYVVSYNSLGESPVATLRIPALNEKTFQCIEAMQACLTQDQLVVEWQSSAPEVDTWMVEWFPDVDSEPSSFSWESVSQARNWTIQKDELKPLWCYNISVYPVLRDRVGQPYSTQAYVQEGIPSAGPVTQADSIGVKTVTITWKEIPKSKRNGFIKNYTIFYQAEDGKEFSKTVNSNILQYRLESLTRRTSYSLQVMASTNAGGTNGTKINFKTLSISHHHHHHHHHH
# PROTOCOL SUMMARY: ELISA, IL-31RA coated
MEASUREMENT NAME: binding result

20B8 (antibody, V domains shown, Rat monoclonal antibody from a hybridoma; also called rat mAb 20B8) VH: EVQLVESGGGLVQPGRSLKLSCVASGFTFNNYWMTWIRQAPGKGLEWVASITNTGGSTYYPDSVKGRFTISRDNAKSTLYLQMNSLRSEDTATYYCTRGPTTVVGGWFAYWGQGTLVTVSS VL: DIVMTQSPTSMSISVGDRVTMNCKASQNVGSNVDWYQQKTGQSPKLLIYRPSNRYTGVPDRFTGSGSGTDFTFTISNMQAEDLAVYYCMQSNSYPPTFGGGTKLELK: binds
27A10 (antibody, V domains shown, Rat monoclonal antibody from a hybridoma; also called rat mAb 27A10) VH: EVQLVESGGGLVQPGRSMKLSCTASGFTFSNYYMAWVRQAPTKGLEWVASISTGGGNTYYRDSVKGRFTISRDNAKSTLYLQMDSLRAEDTATYYCARHTMGYFDYWGQGVMVTVSS VL: QFTLTQPKSVSGSLRSTITIPCERSSGDIGDNYVSWYQQHLGRPPINVIYADDQRPSEVSDRFSGSIDSSSNSASLTITNLQMDDEADYFCQSYDGKIEIPVFGGGTKLTVL: binds
44E2 (antibody, V domains shown, Rat monoclonal antibody from a hybridoma; also called rat mAb 44E2) VH: QVQLKESGPGLVQPSQTLSLTCTVSGFSLTSNGVSWVRQPPGKGLEWIAAISSGGSTYYNSVLKSRLSISRDTSKSQVFLKMNSLQTEDTAIYFCTRRLSGYNYVPFAYWGQGTLVTVSS VL: DIQMTQSPSLLSASVGDRVTLNCKASQNIYKHLAWCQQKLGEPPNLLISNANSLQTGIPSRFSGSGSGTDFTLTISSLQPEDVATYFCQQYYSGDTFGAGTKLELK: binds
